Where do the numbers come from? From patent US8604225B2.

assay: HMF distribution between MIBK phase and aqueous phase with different salts and boric acid; format: physicochemical; settings: 30 wt % fructose, B(OH)3 0.3 g and salt 3 mmol (anion) in 3 mL, MIBK:aqueous 4:1, 150° C. 45 min
measurement_type: R value (MIBK:aq)
Form rule: numeric answer, no unit written next to it.

O=[N+]([O-])[O-].[Na+] [NaNO3, sodium nitrate] | 0.9
O=[N+]([O-])[O-].[Li+] [LiNO3, lithium nitrate] | 0.9
[Br-].[Na+] [NaBr, sodium bromide] | 0.9
[Br-].[Li+] [LiBr, lithium bromide] | 1.0
[Cl-].[Na+] [NaCl, sodium chloride] | 1.0

Query :: Respond only with R value (MIBK:aq) recorded for O=S(=O)([O-])[O-].[Na+].[Na+] [Na2SO4, sodium sulphate]
Result :: 1.7

Query :: Respond only with R value (MIBK:aq) recorded for O=S(=O)([O-])[O-].[K+].[K+] [K2SO4, potassium sulphate]
Result :: 1.5

Query :: Respond only with R value (MIBK:aq) recorded for [Cl-].[K+] [KCl, potassium chloride]
Result :: 1.0

Query :: Respond only with R value (MIBK:aq) recorded for `[I-].[K+]`
Result :: 0.7

Query :: Respond only with R value (MIBK:aq) recorded for [Cl-].[Li+] [LiCl, lithium chloride]
Result :: 1.1

Query :: Respond only with R value (MIBK:aq) recorded for [Cl][Al]([Cl])[Cl] [AlCl3, aluminum chloride]
Result :: 1.1
